Consider the following compounds and their measured Survival number/Test number readings.
test system: C57 male mice; test: Example G: effect of stereoisomerism on survival rate of mice under 7.5Gy irradiation; format: in vivo; conditions: 200 mg/kg IP 30 min before irradiation
Where a name gives a salt, the structure may show the parent alone. Where a SMILES comes first, the peptide text is derived from it.

Consider the following illustrative entries.
COMPOUND | TARGET_OR_SYSTEM | MEASUREMENT_LABEL | EXPERIMENTAL_RESULT
CNC(=O)[C@H](CS)NC(=O)[C@H](CS)NC(=O)[C@H](CS)NC | C57 male mice | Survival number/Test number | 5/9
CNC(=O)C(CS)NC(=O)C(CS)NC(=O)C(CS)NC (racemic) | C57 male mice | Survival number/Test number | 1/9
NC(=O)[C@H](CS)NC(=O)[C@@H](N)CS [Example 1, trifluoroacetate] (H-Cys-Cys-NH2) | C57 male mice | Survival number/Test number | 1/9
NC(=O)[C@H](CS)NC(=O)[C@H](CS)NC(=O)[C@@H](N)CS [Example 3, trifluoroacetate] (H-Cys-Cys-Cys-NH2) | C57 male mice | Survival number/Test number | 2/9
N[C@@H](CS)C(=O)O [L-Cys, L-cysteine, reference compound] | C57 male mice | Survival number/Test number | 1/9
N[C@H](CS)C(=O)O [D-Cys, D-cysteine, reference compound] | C57 male mice | Survival number/Test number | 0/9
CNC(=O)C(CS)NC(=O)C(CS)NC (racemic) | C57 male mice | Survival number/Test number | 2/9

# context switch: different compound, same Survival number/Test number
[ask] Determine from records and report Survival number/Test number for CNC(=O)[C@H](CS)NC(=O)[C@H](CS)NC
[reply] 4/9
